measurementNotes: In vivo rat tracer distribution and brain uptake (LC-MS/MS)
Set-up: species or system Sprague-Dawley rats
measurementContext: Sprague-Dawley, brain stem, iv, 10 μg/kg i.v., 20 min, read-out: Mean tracer concentration ± SEM, Brain Stem
measurementKind: concentration at 20 min (ng/g)

INSERT INTO measurements (mol, reading) VALUES
  ('Cc1cc(N2CC(F)C2)cc(OCc2ccc([C@@H](C)[C@@]3(C)C(=O)NC[C@@H]3CF)cc2)n1', 1.18);

P. Cc1cc(N2CCC2)cc(OCc2ccc([C@@H](C)[C@@]3(C)C(=O)NC[C@@H]3CF)cc2)n1
Q. Cc1cc(N2CC(F)C2)cc(OCc2ccc([C@@H](C)[C@@]3(C)C(=O)NC[C@@H]3C)cc2)n1
(Q) Could you tell me which of P and Q has the lower concentration at 20 min reading? Respond using the label that marks the chosen record.
(A) P
